Tested on: PfHDP1 homeodomain (GST-tagged)
assay procedure: gcPBM binding intensity (ln(normalized median fluorescence intensity)); higher = stronger DNA binding
The full ranking holds about 25,000 sequences; the median of “ln(normalized median fluorescence intensity)” is about 6.7, and the highest 2% start at about 10. This is one part of a sample in which the highest values are shown more often than they occur.
recorded metric: gcPBM binding intensity (ln)

>>> measurement("AGTAGTCTGGAGAAGAGTACACAGTATCTGGTAACA [XGTACX_site2032]")
6.02
>>> measurement("TATGTGTGCAAAAACTGTACACATTAAAGGTATATA [XGTACX_site7627]")
10.3
>>> measurement("TATTTTGTATTCATTTGTCACATATAATAGATAGGA [TGCATGCA_negctrl_site9]")
6.82

---

Attribute: gcPBM binding intensity (ln)
System: PfHDP1 homeodomain (GST-tagged)
assay procedure: gcPBM binding intensity (ln(normalized median fluorescence intensity)); higher = stronger DNA binding
The full ranking holds about 25,000 sequences; the median of “ln(normalized median fluorescence intensity)” is about 6.7, and the highest 2% start at about 10. This excerpt belongs to a sample that is enriched for the highest values.
recorded metric: gcPBM binding intensity (ln)

>>> measurement("TATATATTTCGGTGTGCACACTTTTTATTTTTATCC [CACACA_site1726]")
10.7
>>> measurement("TTATATTTAGTATATGCACACTTTATGTTTGTTATT [CACACA_site5163]")
9.53
>>> measurement("TTTTTATGGACTATGGTGCATTATATATAAATGAAA [GTGCAC_site9557]")
10.3
>>> measurement("TTTATCTAAATATGTGTGCACTCGTTAATTTTTTTT")
10.8
>>> measurement("AAAAGGAGAAATATTGCACACGTGCAAAATGGTATG [CACACA_site4300]")
11
>>> measurement("TATAAGGCAATAATAGTGCACTAAGATATATAATGA")
10.7
>>> measurement("AAAATATAATATATTGCACACAAAAAGTGAATTATT [CACACA_site8489]")
10.6
>>> measurement("AATCGAAATCGTGCACGGACACATGCAGTAGCCGAG [XGTACX_site6001]")
10.2

---

Test system: PfHDP1 homeodomain (GST-tagged)
assay procedure: gcPBM binding intensity (ln(normalized median fluorescence intensity)); higher = stronger DNA binding
Over roughly 25,000 sequences, “ln(normalized median fluorescence intensity)” has its median near 6.7; the highest 2% begin near 10. This excerpt belongs to a sample that is enriched for the highest values.
Could you label it Y if measured gcPBM binding intensity (ln) is 7 or higher, and N otherwise?

>>> category("GACAATTATATGTAGGTGCATATACAAATTTTTTAA")
"Y"
>>> category("AAAAAAATAGTCTTCTTGCACTTTTTAATTTATTTT")
"N"
>>> category("TATGCACCCAGACACACACACACAACTAAAAAATAA [CACACA_site2567]")
"Y"
>>> category("ATCAAACAAAAAATAAAAAAATGCGACATGTGTACA [TGCATGCA_negctrl_site164]")
"Y"
>>> category("ATGTATATGTTTTGTTGTACAAGTATTTTATATCTT [XGTACX_site3588]")
"N"
>>> category("TTTTTTTTTTATTTTGCACACTTCTAATTTAGTTCT [CACACA_site5828]")
"Y"
>>> category("AGTGATTATTAATAATGTACATATCTATAAATATAT [XGTACX_site4734]")
"N"
>>> category("AAAAAATTAGATTATGCACACACACTAATAAATAAT [CACACA_site8604]")
"Y"
>>> category("AAAAAAAAAAAAAAAGGTACAGTAAAAAATTCCTCT [XGTACX_site5947]")
"N"
>>> category("TCCGTATAATTTTGCACACGAATATAAATTTGATAA [CACACA_site136]")
"Y"
>>> category("ACATAAGATGAAAAATGTACATTCAAAAAATGAAAT [XGTACX_site3227]")
"N"
>>> category("TTTTTTTTTTATTTTGCACACTTCTAATTTAGTTGT [CACACA_site3429]")
"Y"
>>> category("TTTTGTTATTTTTGTATGCACTACATATTATTATAT")
"Y"
>>> category("AAAAAAGATAATTATGCACACACACCCACCCACCCA [CACACA_site8825]")
"Y"
>>> category("TTATTAGAAAAATGCACACCAAAAAAAAAAAAAAAA [CACACA_site2522]")
"Y"
>>> category("CATATATATTTTATATGTACATATATATTTTATATA [XGTACX_site8665]")
"N"
>>> category("AAAAGATAATTATGCACACACACACCCCCACCCAAC [CACACA_site2570]")
"Y"
>>> category("AATTTTTTTTTTTTGTTGCACTTTTAGAGTTTTAAT [GTGCAC_site9519]")
"Y"
>>> category("TATATATATATGTGCACACATAAAGATATTATTTTT [CACACA_site3733]")
"Y"
>>> category("ATTATGCACAGACACACACACACACTACTAAAAAAT [CACACA_site7252]")
"Y"
>>> category("TATTTTTGTATATATTTATTCTTATTTTACAGGAAA [TGCATGCA_negctrl_site472]")
"N"
>>> category("GCATCATTTATTTGCACACCTATTATATACTTTTTA [CACACA_site2098]")
"Y"
>>> category("TATTATAATATTTATACACACATAATTTTGATAAAT [CACACA_site583]")
"N"
>>> category("AAGAAAGGTTAAACATGTACATAAATATTTTACATA [XGTACX_site5024]")
"N"
>>> category("ACAGGAAAAAACAATTGTACATGTATATATATATAT [XGTACX_site7677]")
"Y"
>>> category("ATATTTTACATATTTGCACACATATATTTATATACA [CACACA_site855]")
"Y"
>>> category("AAAAATAGTCTTCTTGCACTTTTTAATTTATTTTAA [CACACA_negctrl_site1322]")
"N"
>>> category("ATTATGCACCAACACACACACACACTCCTAAAAAAT [CACACA_site8822]")
"Y"

---

# gcPBM binding intensity (ln) per record follows
Tested on: PfHDP1 homeodomain (GST-tagged)
assay procedure: gcPBM binding intensity (ln(normalized median fluorescence intensity)); higher = stronger DNA binding
In all, about 25,000 sequences were measured (“ln(normalized median fluorescence intensity)”: median about 6.7, highest 2% from about 10 on). The sample as a whole holds a higher share of the highest values than the screen did.
recorded metric: gcPBM binding intensity (ln)

>>> measurement("TCTTTCTAAAGATGTAGTACAAAATAAATATAATAT [XGTACX_site6564]")
6.87
>>> measurement("AAAAAAAAATATATATATATATATATATTTATGTAT [GTGCAC_negctrl_site483]")
6.92
>>> measurement("TGCCCTAACCATACTACACACACTGCTCAAAATAGT [CACACA_site2219]")
7.09
>>> measurement("TTAATATAACTTTTTGCACACTTAATTTTTTTTTTT [CACACA_site3364]")
10.2
>>> measurement("ACTAAACTTTTATGTACACACATATAACATTAATTT [CACACA_site5276]")
6.98
>>> measurement("TTTATATTCTTAAGTGTGCACTATATATATATATAT [GTGCAC_site9719]")
10.5
>>> measurement("TCATACAATATTAAATGTACATATATATATATATAT [XGTACX_site8828]")
9.25
>>> measurement("TATATTAAACTTTGCACACATAATTTAACTACAAAG [CACACA_site3441]")
10.5
>>> measurement("ATATATTTTATATGTGTGCACTATATATATATATAT")
10.8

---

Test system: PfHDP1 homeodomain (GST-tagged)
assay procedure: gcPBM binding intensity (ln(normalized median fluorescence intensity)); higher = stronger DNA binding
Over roughly 25,000 sequences, “ln(normalized median fluorescence intensity)” has its median near 6.7; the highest 2% begin near 10. The full list was thinned out, with the highest values kept by preference.
gcPBM binding intensity (ln) vs 10: at or above is yes (1), below is no (0).

>>> category("ATATGCACTCATTGTGCACACGCATATTACGAAAAG [CACACA_site2637]")
"yes (1)"
>>> category("AAAAAAAAAAAAGGCACACAAACATATGTAGACATA [CACACA_site2284]")
"no (0)"
>>> category("TACATATTGCACAAATAAAAAAGAACAAAAAAAAAA [CACACA_negctrl_site1200]")
"yes (1)"
>>> category("ATGTCTACAGTTTTTGCACACATATAAATAAAAAAA [CACACA_site3600]")
"yes (1)"
>>> category("AAGATTAAACATTGCACACAAAAACATATTTTCTAT [CACACA_site530]")
"no (0)"
>>> category("TTTGTAGTTTGCACATGTACACATTTCAAAATAAAG [XGTACX_site7568]")
"yes (1)"
>>> category("AGACTATCATTTTTTTAACACACAAAAAAAATAAAA [CACACA_site9173]")
"no (0)"
>>> category("TCATATTATAAATAAATAAATAAATATATATATATA [CACACA_negctrl_site577]")
"no (0)"
>>> category("TATATTGCAAAAAGTACACACATAAATAAATACATA [CACACA_site6589]")
"no (0)"
>>> category("TTTTCTATAAGATTTGCACACAACTTATTCTATTAA [CACACA_site3752]")
"yes (1)"
>>> category("ATAGAACTATATTGCACACATAATATATATATATAT [CACACA_site3189]")
"yes (1)"
